FYI, the data here is from ChEMBL document CHEMBL1131955.

subject_of_test: Protein farnesyltransferase (Rattus norvegicus, UniProt Q02293+Q04631)
test: In vitro inhibition of rat brain cytosol farnesyl transferase
pIC50: −log10 of the molar value.
Listed here: items and their measured pIC50.
value_kind: pIC50

* CC(C)=CCC/C(C)=C/CC/C(C)=C/COc1c(F)c(O)c([N+](=O)[O-])c(F)c1F | 5.20
* C=C(C)C1CC=C(COc2c(F)c(O)c([N+](=O)[O-])c(F)c2F)CC1 (configuration not stated) | 3.92
* O=[N+]([O-])c1c(O)c(F)c(OCc2ccc3ccccc3c2)c(F)c1F | 3.70
* O=[N+]([O-])c1c(O)c(F)c(OCc2ccc(-c3ccccc3)cc2)c(F)c1F | 3.70
